- target: Neutrophil elastase (Homo sapiens)
- Sequence (whole entry): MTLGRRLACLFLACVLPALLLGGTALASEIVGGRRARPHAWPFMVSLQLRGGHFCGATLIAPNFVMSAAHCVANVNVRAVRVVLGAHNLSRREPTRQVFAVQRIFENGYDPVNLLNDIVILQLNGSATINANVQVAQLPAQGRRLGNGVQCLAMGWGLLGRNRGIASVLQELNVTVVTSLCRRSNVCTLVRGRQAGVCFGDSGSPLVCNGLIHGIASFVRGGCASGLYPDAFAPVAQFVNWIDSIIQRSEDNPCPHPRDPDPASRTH
- test-protocol: Percent inhibition in elastase-induced lung haemorrhage, when the compound is dosed orally at 30 mg/kg 30 min before challenge by HLE (Human leukocyte elastase)
- Assay type: functional, organism-based
- Set-up: dose 30 mg/kg
assay-readout: inhibition (%)

[a] CCC1(CC)C(=O)N(C(=O)NCc2ccsc2)C1Oc1ccc(C(=O)O)cc1 (configuration not stated)
[b] CCC1(CC)C(=O)N(C(=O)NCCCCCCc2ccccc2)C1Oc1ccc(C(=O)O)cc1 (configuration not stated)
In: Quick check, higher inhibition between a and b ? # respond with the chosen item's label
Out: a
(a: 53%, b: 14%)

----------
- target: Neutrophil elastase (Homo sapiens)
- test-protocol: elastase inhibitory activity, evaluated for second order rate constant (time-dependent inhibition)
assay-readout: second order rate constant kobs/[I] (M⁻¹ s⁻¹)

// worked examples, second order rate constant kobs/[I] included
> print(dat)
                                   compound  readout.value
1  CCC1(CC)C(=O)N(C(=O)NCC2CCCCC2)C1Oc1ccc(C(=O)O)cc1 (stereo not given)           1400
2  CCC1(CC)C(=O)N(C(=O)NCc2ccc(OC)c(C)c2)C1Oc1ccc(C(=O)O)cc1 (stereo not given)          13100
3  CCC1(CC)C(=O)N(C(=O)NCc2ccc(C)c(OC)c2)C1Oc1ccc(C(=O)O)cc1 (stereo not given)           6500

[A] CCC1(CC)C(=O)N(C(=O)NCc2ccc(-c3ccccc3)cc2)C1Oc1ccc(CC(=O)O)cc1 (stereo not given)
[B] CCC1(CC)C(=O)N(C(=O)NCCCOc2ccccc2)C1Oc1ccc(C(=O)O)cc1 (stereo not given)
In: Of A and B , which one carries the higher reported second order rate constant kobs/[I]? Which one? Tell me its label.
Out: A

----------
- target: Neutrophil elastase (Homo sapiens) (UniProt P08246)
- Sequence (whole entry): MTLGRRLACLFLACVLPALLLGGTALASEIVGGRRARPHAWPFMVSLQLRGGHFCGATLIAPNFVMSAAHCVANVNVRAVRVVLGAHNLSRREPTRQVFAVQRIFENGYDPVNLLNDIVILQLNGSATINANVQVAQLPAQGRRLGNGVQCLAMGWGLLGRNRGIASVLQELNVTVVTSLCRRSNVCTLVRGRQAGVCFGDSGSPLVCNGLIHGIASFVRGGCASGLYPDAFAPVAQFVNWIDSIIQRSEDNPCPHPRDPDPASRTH
- test-protocol: Percent inhibition in elastase-induced lung haemorrhage, when the compound is dosed orally at 30 mg/kg 30 min before challenge by HLE (Human leukocyte elastase)
- Type: functional, organism-based
- Set-up: dose 30 mg/kg
assay-readout: inhibition (%)

> print(dat)
                                   molecule                                    target  assay.readout  readout.value
1  CCC1(CC)C(=O)N(C(=O)NCc2ccc(C)cc2)C1Oc1ccc(CC(=O)O)cc1 (stereo not given)  Neutrophil elastase (Homo sapiens) (UniProt P08246)     inhibition             72

[a] CCC1(CC)C(=O)N(C(=O)NCC2CCCCC2)C1Oc1ccc(C(=O)O)cc1 (stereo not given)
[b] CCCCNC(=O)N1C(=O)C(CC)(CC)C1Oc1ccc(C(=O)O)cc1 (stereo not given)
In: Please indicate which entry, a or b , has the lower recorded inhibition value. // output: label of the selected item
Out: a
(a: 0%, b: 45%)

[A] CCC1(CC)C(=O)N(C(=O)NCc2ccc3c(c2)OCO3)C1Oc1ccc(C(=O)O)cc1 (stereo not given)
[B] CCC1(CC)C(=O)N(C(=O)NCc2ccc(C)c(OC)c2)C1Oc1ccc(C(=O)O)cc1 (stereo not given)
In: Field: lower inhibition | Options: A / B Give the label of your selection.
Out: A
